# IC50 per entry
Target: Gamma-aminobutyric acid receptor subunit alpha-6/beta-3/delta (Rattus norvegicus, UniProt P18506+P30191+P63079)
Sequence (P18506 whole entry): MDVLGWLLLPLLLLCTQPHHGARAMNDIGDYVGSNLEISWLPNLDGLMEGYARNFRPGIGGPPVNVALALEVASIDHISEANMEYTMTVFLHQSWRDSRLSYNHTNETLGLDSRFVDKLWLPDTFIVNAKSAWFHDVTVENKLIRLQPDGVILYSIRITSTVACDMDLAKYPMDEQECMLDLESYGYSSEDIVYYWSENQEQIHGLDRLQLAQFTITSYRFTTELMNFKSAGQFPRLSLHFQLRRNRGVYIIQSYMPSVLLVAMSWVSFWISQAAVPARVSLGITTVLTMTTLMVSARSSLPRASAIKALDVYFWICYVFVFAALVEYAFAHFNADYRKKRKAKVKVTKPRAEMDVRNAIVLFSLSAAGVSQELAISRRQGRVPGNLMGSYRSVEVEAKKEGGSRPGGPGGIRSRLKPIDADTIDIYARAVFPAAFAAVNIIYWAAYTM
Sequence (P30191 whole entry): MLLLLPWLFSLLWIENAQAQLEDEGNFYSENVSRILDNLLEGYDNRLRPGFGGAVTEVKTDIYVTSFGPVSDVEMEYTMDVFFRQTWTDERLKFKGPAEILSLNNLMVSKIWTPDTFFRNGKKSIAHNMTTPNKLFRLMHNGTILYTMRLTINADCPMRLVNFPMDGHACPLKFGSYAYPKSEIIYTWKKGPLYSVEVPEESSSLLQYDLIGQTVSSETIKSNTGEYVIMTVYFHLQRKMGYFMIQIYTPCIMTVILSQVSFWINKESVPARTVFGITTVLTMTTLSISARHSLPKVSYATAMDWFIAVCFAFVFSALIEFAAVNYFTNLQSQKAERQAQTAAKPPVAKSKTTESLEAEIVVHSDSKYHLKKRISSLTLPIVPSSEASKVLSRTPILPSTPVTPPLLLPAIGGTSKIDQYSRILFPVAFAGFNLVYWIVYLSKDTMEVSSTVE
Sequence (P63079 whole entry): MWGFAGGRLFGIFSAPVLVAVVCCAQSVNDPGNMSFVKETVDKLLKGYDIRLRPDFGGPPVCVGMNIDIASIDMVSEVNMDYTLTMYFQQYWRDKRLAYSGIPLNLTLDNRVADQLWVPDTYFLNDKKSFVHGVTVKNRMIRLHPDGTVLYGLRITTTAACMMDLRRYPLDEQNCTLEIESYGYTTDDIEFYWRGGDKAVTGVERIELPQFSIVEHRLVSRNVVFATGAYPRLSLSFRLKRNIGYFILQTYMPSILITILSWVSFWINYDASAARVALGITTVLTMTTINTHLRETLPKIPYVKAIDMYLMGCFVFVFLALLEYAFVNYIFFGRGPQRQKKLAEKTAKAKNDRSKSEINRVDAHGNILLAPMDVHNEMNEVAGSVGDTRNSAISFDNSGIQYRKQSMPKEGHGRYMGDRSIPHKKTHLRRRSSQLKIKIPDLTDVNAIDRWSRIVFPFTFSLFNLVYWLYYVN
Assay: Displacement of [3H]EBOB from rat GABA-A receptor alpha6beta3delta expressed in HEK293 cell membranes after 90 mins by liquid scintillation counting analysis
Please respond with the number in nM and leave the unit unwritten.

Before answering, review these 3 worked examples.
• O=C(Nc1c(-c2cccs2)nc2c(Br)cc(Br)cn12)c1ccc(OCCCF)cc1 = 1000
• CCCCOc1ccc(C(=O)Nc2c(-c3cccs3)nc3c(Br)cc(Br)cn23)cc1 = 860
• O=C(Nc1c(-c2cccs2)nc2c(Br)cc(Br)cn12)c1ccc(OCCCCF)cc1 = 760

Next:
[in] Give the measured IC50 for O=C(Nc1c(-c2cccs2)nc2c(Br)cc(Br)cn12)c1ccc(F)cc1
[out] 1200
